system: MCF7 breast; assay: NCI tumour cell line growth inhibition, 48 h
Measured TGI of individual entries

Previously resolved entries follow.
COMPOUND	EXPERIMENTAL VALUE
COC(=O)/C(C#N)=C/c1cc(C(C)(C)C)c(O)c(C(C)(C)C)c1	15.7 µM
CC12CCC(=O)[C@@]1(C)CCCC2O (stereo partly specified)	> 100 µM
C[C@H]1S[C@H](c2c(F)cccc2F)n2c1nc1ccccc12	> 100 µM
CCSCCCC(=O)O	> 100 µM
COC(=O)CNC(=O)CSc1nnc(COc2ccc(Cl)cc2)n1-c1ccccc1	> 100 µM

Task: What TGI appears in the records for this compound with MCF7 breast? O=C(Nc1ccc(Cl)cc1)N1CCN(c2ccc3nncn3n2)CC1
Output: > 100 µM

Task: What TGI appears in the records for this compound with MCF7 breast? CC(=O)c1cccc(Nc2nc3ccccc3c3[nH]c4ccccc4c23)c1
Output: 4.22 µM

Task: What TGI appears in the records for this compound with MCF7 breast? N[C@H]1CCN(c2c(F)cc3c(=O)c(C(=O)O)cn4c3c2Oc2c-4ccc3c2ccc2ccccc23)C1
Output: > 100 µM
